System Under Test: FLT-3 kinase domain recombinant protein (Homo sapiens, UniProt P36888)
Construct: 50 μL FLT-3 kinase domain recombinant protein diluted with reaction buffer to initiate the reaction
Sequence (P36888 610-943 limits assumed): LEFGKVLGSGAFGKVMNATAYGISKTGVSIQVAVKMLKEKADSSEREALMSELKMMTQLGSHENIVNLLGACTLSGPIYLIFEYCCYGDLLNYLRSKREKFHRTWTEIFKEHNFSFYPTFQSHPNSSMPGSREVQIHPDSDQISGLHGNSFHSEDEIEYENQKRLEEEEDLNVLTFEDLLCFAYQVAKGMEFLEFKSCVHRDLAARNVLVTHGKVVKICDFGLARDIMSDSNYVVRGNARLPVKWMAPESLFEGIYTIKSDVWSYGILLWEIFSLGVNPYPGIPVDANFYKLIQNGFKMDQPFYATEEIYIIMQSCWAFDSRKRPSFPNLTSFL
Assay Method Text: Inhibition rate on FLT3 kinase (ELISA)
Format: biochemical
Measurement Conditions: compound 10 nM; two values per compound; read-out: Inhibition rate (%) against receptor tyrosine kinase FLT-3
Reported Property: inhibition at 0.01 µM (%)

molecule="Cc1c(C(=O)Nc2ccc(Oc3ncnc4[nH]cc(-c5ccccc5)c34)c(F)c2)c(=O)c2cc(OC(F)(F)F)ccc2n1C [TL4800117]" result_units=% value_observed=59.5
molecule="COc1cc2ncnc(Oc3ccc(NC(=O)c4cn(C5CC5)c5cc(N6CCNCC6)c(F)cc5c4=O)cc3F)c2cc1OC [GDL5000110]" result_units=% value_observed=48.5
molecule="CCc1ccc2c(c1)c(=O)c(C(=O)Nc1ccc(Oc3ncnc4cc(OCCN5CCCC5)c(OC)cc34)c(F)c1)c(C)n2C [TL4830058]" result_units=% value_observed=54.7
molecule="COc1cc2ncnc(Oc3ccc(NC(=O)c4cn(-c5ccc(F)cc5)c5cc(N6CCNCC6)c(F)cc5c4=O)cc3F)c2cc1OC [TL4830042]" result_units=% value_observed=52.3
molecule="CCc1ccc2c(c1)c(=O)c(C(=O)Nc1ccc(Oc3ccnc(N)c3Cl)c(F)c1)c(C)n2C [GDL5000059]" result_units=% value_observed=55.9
molecule="Cc1c(C(=O)Nc2ccc(Oc3ncnc4[nH]cc(-c5ccccc5)c34)c(F)c2)c(=O)c2cc(C(C)(C)C)ccc2n1C [TL4800062]" result_units=% value_observed=40.5
molecule="CCc1ccc2c(c1)c(=O)c(C(=O)Nc1ccc(Oc3ncnc4[nH]cc(-c5ccccc5)c34)c(C)c1)c(C)n2C [TL4830016]" result_units=% value_observed=50.2
